# System: SKBr3 cells
# Experiment: MTS/PMS cell viability assay, SKBr3
# Type: cell-based
# Reported conditions: Homo sapiens, SK-BR-3; Table 1 coumarin-based triazoles; 72 hr; mean ± standard deviation, at least two experiments in triplicate; read-out: IC50 SKBr3
# Procedure: a) MTS/PMS Cell Viability Assay (SKBr3 and MCF-7 Cells) Cells were maintained in a 1:1 mixture of Advanced DMEM/F12 (Gibco) supplemented with non-essential amino acids, L-glutamine (2 mM), streptomycin (500 μg/mL), penicillin (100 units/mL), and 10% FBS. […] At 72 hr, the number of viable cells was determined using an MTS/PMS cell proliferation kit (Promega) per the manufacturer's instructions. […] IC50 values were calculated from separate experiments performed in triplicate using GraphPad Prism.
pIC50: −log10 of the molar value.
Is pIC50 at least 6? Then MET. If not, NOT MET.

Cpd smiles	Label class
Cc1c(OC2CCN(C)CC2)ccc2cc(NC(=O)c3cn(CC4CCCCC4)nn3)c(=O)oc12	MET
Cc1c(OC2CCN(C)CC2)ccc2cc(NC(=O)c3cn(Cc4ccc(C(C)(C)C)cc4)nn3)c(=O)oc12	MET
Cc1c(OC2CCN(C)CC2)ccc2cc(NC(=O)c3cn(CCCc4ccccc4)nn3)c(=O)oc12	NOT MET
Cc1c(OC2CCN(C)CC2)ccc2cc(NC(=O)c3cn(CCc4ccccc4)nn3)c(=O)oc12	MET
Cc1c(OC2CCN(C)CC2)ccc2cc(NC(=O)c3cn(-c4ccc(Cl)cc4)nn3)c(=O)oc12	MET
Cc1c(OC2CCN(C)CC2)ccc2cc(NC(=O)c3cn(Cc4ccc([N+](=O)[O-])cc4)nn3)c(=O)oc12	MET

----------
# Tested on: PC3-MM2 cells
# Experiment: Sulforhodamine B assay, PC3-MM2
# Type: cell-based
# Reported conditions: Homo sapiens, PC3MM2; Table 2 biphenyl triazole analogues; mean ± standard deviation
# Experimental: c) Sulforhodamine B Assay The sulforhodamine B assay is used to measure drug-induced cytotoxicity and cell proliferation for large-scale drug-screening applications. […] The SRB assay is performed by treating cells using a 10 point dose-response curve. […] The stained cells are then solubilized with 10 mM Tris buffer and read for absorbance at 565 nm. Percentage growth is calculated at each of the drug concentration levels using the absorbance raw data. […] Tz=Absorbance time zero wells […]
Parameter: IC50 (nM)

Molecule	Parameter	Inequality sign	Endpoint result
CN1CCC(Oc2ccc(-c3ccc(NC(=O)c4cn(Cc5ccc(Cl)cc5)nn4)cc3)cc2)CC1 [5d]	IC50	=	660
CN1CCC(Oc2ccc(-c3ccc(NC(=O)c4cn(CC5CCCCC5)nn4)cc3)cc2)CC1 [5o]	IC50	=	5120
CN1CCC(Oc2ccc(-c3ccc(NC(=O)c4cn(Cc5ccc(C(C)(C)C)cc5)nn4)cc3)cc2)CC1 [5h]	IC50	>	100000
COc1ccc(Cn2cc(C(=O)Nc3ccc(-c4ccc(OC5CCN(C)CC5)cc4)cc3)nn2)cc1 [5g]	IC50	=	440
CN1CCC(Oc2ccc(-c3ccc(NC(=O)c4cn(Cc5ccc(F)cc5)nn4)cc3)cc2)CC1 [5j]	IC50	=	2810
Cc1ccc(Cn2cc(C(=O)Nc3ccc(-c4ccc(OC5CCN(C)CC5)cc4)cc3)nn2)cc1 [5f]	IC50	=	360
CN1CCC(Oc2ccc(-c3ccc(NC(=O)c4cn(Cc5ccc([N+](=O)[O-])cc5)nn4)cc3)cc2)CC1 [5i]	IC50	=	1030
Cc1ccc(Cn2cc(C(=O)Nc3ccc(-c4ccc(OC5CCN(C)CC5)cc4)cc3)nn2)c(Cl)c1 [5n]	IC50	=	350
CN1CCC(Oc2ccc(-c3ccc(NC(=O)c4cn(Cc5ccccc5Cl)nn4)cc3)cc2)CC1 [5m]	IC50	=	1040
CN1CCC(Oc2ccc(-c3ccc(NC(=O)c4cn(Cc5cccc(Cl)c5)nn4)cc3)cc2)CC1 [5k]	IC50	=	350
CN1CCC(Oc2ccc(-c3ccc(NC(=O)c4cn(-c5ccccc5)nn4)cc3)cc2)CC1 [5a]	IC50	=	4260
CN1CCC(Oc2ccc(-c3ccc(NC(=O)c4cn(Cc5ccccc5)nn4)cc3)cc2)CC1 [5b]	IC50	=	550
CN1CCC(Oc2ccc(-c3ccc(NC(=O)c4cn(CCc5ccccc5)nn4)cc3)cc2)CC1 [5c]	IC50	=	830
COc1cccc(Cn2cc(C(=O)Nc3ccc(-c4ccc(OC5CCN(C)CC5)cc4)cc3)nn2)c1 [5l]	IC50	=	550
CN1CCC(Oc2ccc(-c3ccc(NC(=O)c4cn(Cc5ccc(Br)cc5)nn4)cc3)cc2)CC1 [5e]	IC50	=	19900

----------
# Test system: MCF-7 cells
# Experiment: MTS/PMS cell viability assay, MCF-7
# Format: cell-based
# Reported conditions: Homo sapiens, MCF7; Table 2 biphenyl triazole analogues; 72 hr; mean ± standard deviation; read-out: IC50 MCF-7
Parameter: IC50 (nM)

Cpd smiles	Endpoint result
CN1CCC(Oc2ccc(-c3ccc(NC(=O)c4cn(Cc5ccc(Br)cc5)nn4)cc3)cc2)CC1	560
CN1CCC(Oc2ccc(-c3ccc(NC(=O)c4cn(-c5ccccc5)nn4)cc3)cc2)CC1	1440
Cc1ccc(Cn2cc(C(=O)Nc3ccc(-c4ccc(OC5CCN(C)CC5)cc4)cc3)nn2)cc1	120
CN1CCC(Oc2ccc(-c3ccc(NC(=O)c4cn(Cc5cccc(Cl)c5)nn4)cc3)cc2)CC1	340
CN1CCC(Oc2ccc(-c3ccc(NC(=O)c4cn(CC5CCCCC5)nn4)cc3)cc2)CC1	310
COc1ccc(Cn2cc(C(=O)Nc3ccc(-c4ccc(OC5CCN(C)CC5)cc4)cc3)nn2)cc1	270
CN1CCC(Oc2ccc(-c3ccc(NC(=O)c4cn(Cc5ccc(F)cc5)nn4)cc3)cc2)CC1	1040
CN1CCC(Oc2ccc(-c3ccc(NC(=O)c4cn(Cc5ccc(C(C)(C)C)cc5)nn4)cc3)cc2)CC1	10500
CN1CCC(Oc2ccc(-c3ccc(NC(=O)c4cn(Cc5ccc([N+](=O)[O-])cc5)nn4)cc3)cc2)CC1	550
CN1CCC(Oc2ccc(-c3ccc(NC(=O)c4cn(Cc5ccccc5Cl)nn4)cc3)cc2)CC1	380
CN1CCC(Oc2ccc(-c3ccc(NC(=O)c4cn(Cc5ccc(Cl)cc5)nn4)cc3)cc2)CC1	440
CN1CCC(Oc2ccc(-c3ccc(NC(=O)c4cn(Cc5ccccc5)nn4)cc3)cc2)CC1	500
CN1CCC(Oc2ccc(-c3ccc(NC(=O)c4cn(CCc5ccccc5)nn4)cc3)cc2)CC1	380
COc1cccc(Cn2cc(C(=O)Nc3ccc(-c4ccc(OC5CCN(C)CC5)cc4)cc3)nn2)c1	160
Cc1ccc(Cn2cc(C(=O)Nc3ccc(-c4ccc(OC5CCN(C)CC5)cc4)cc3)nn2)c(Cl)c1	200

----------
# Tested on: SKBr3 cells
# Experiment: MTS/PMS cell viability assay, SKBr3
# Type: cell-based
# Reported conditions: Homo sapiens, SK-BR-3; Table 2 biphenyl triazole analogues; 72 hr; mean ± standard deviation; read-out: IC50 SKBr3
# Procedure: a) MTS/PMS Cell Viability Assay (SKBr3 and MCF-7 Cells) Cells were maintained in a 1:1 mixture of Advanced DMEM/F12 (Gibco) supplemented with non-essential amino acids, L-glutamine (2 mM), streptomycin (500 μg/mL), penicillin (100 units/mL), and 10% FBS. […] At 72 hr, the number of viable cells was determined using an MTS/PMS cell proliferation kit (Promega) per the manufacturer's instructions. […] IC50 values were calculated from separate experiments performed in triplicate using GraphPad Prism.
Parameter: log10 of IC50 (log10 of the value in µM)

Cpd smiles	log10 of IC50
CN1CCC(Oc2ccc(-c3ccc(NC(=O)c4cn(CCc5ccccc5)nn4)cc3)cc2)CC1	-0.72
CN1CCC(Oc2ccc(-c3ccc(NC(=O)c4cn(Cc5ccc(C(C)(C)C)cc5)nn4)cc3)cc2)CC1	0.57
CN1CCC(Oc2ccc(-c3ccc(NC(=O)c4cn(Cc5ccccc5Cl)nn4)cc3)cc2)CC1	-0.47
Cc1ccc(Cn2cc(C(=O)Nc3ccc(-c4ccc(OC5CCN(C)CC5)cc4)cc3)nn2)c(Cl)c1	-0.80
CN1CCC(Oc2ccc(-c3ccc(NC(=O)c4cn(Cc5ccc(F)cc5)nn4)cc3)cc2)CC1	-0.14
COc1ccc(Cn2cc(C(=O)Nc3ccc(-c4ccc(OC5CCN(C)CC5)cc4)cc3)nn2)cc1	-0.80
CN1CCC(Oc2ccc(-c3ccc(NC(=O)c4cn(Cc5ccc(Cl)cc5)nn4)cc3)cc2)CC1	-0.49
CN1CCC(Oc2ccc(-c3ccc(NC(=O)c4cn(CC5CCCCC5)nn4)cc3)cc2)CC1	-0.70
Cc1ccc(Cn2cc(C(=O)Nc3ccc(-c4ccc(OC5CCN(C)CC5)cc4)cc3)nn2)cc1	-0.77
CN1CCC(Oc2ccc(-c3ccc(NC(=O)c4cn(-c5ccccc5)nn4)cc3)cc2)CC1	0.06
CN1CCC(Oc2ccc(-c3ccc(NC(=O)c4cn(Cc5ccccc5)nn4)cc3)cc2)CC1	-0.77
CN1CCC(Oc2ccc(-c3ccc(NC(=O)c4cn(Cc5ccc(Br)cc5)nn4)cc3)cc2)CC1	-0.31
COc1cccc(Cn2cc(C(=O)Nc3ccc(-c4ccc(OC5CCN(C)CC5)cc4)cc3)nn2)c1	-0.49
CN1CCC(Oc2ccc(-c3ccc(NC(=O)c4cn(Cc5cccc(Cl)c5)nn4)cc3)cc2)CC1	-0.41
CN1CCC(Oc2ccc(-c3ccc(NC(=O)c4cn(Cc5ccc([N+](=O)[O-])cc5)nn4)cc3)cc2)CC1	-0.35
